Test system: S. cerevisiae Mot1-301 ts growth rescue, BacTiter-Glo ATP luminescence
measurementDescription: restored Mot1-301 yeast growth at 38.5C – whole organism, S. cerevisiae, Mot1-301 ts mutant, luminescence, dose retest, SUMOylation pathway inhibitor project, confirmation (AID 463204);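 also: growth at restrictive 38.5 degrees C of Mot1-301 OY566 strain; actives raise luminescence by restoring growth of the ts mutant at high temperature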
The source made the active and inactive calls.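 The calls were made as follows: active = AC50 no more than ten times the top concentration tested, that is within one log above it; inconclusive = flat curve fit with activity between 30% and 70%, or invalid poor fit; inactive = AC50 beyond ten times the top tested dose.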
I would appreciate it if you answered using one of these outcomes: active, inactive

- compound: "Cc1nn(Cc2ccc(C(=O)Nc3ccccc3C(F)(F)F)o2)c(C)c1Br"
  category: "inactive"

Task item: Please state the recorded outcome for this compound: N#CC1=C(SCC(N)=O)NC(=O)CC1c1ccccc1Cl (centres undefined)
Reply: active

Task item: Please state the recorded outcome for this compound: CCCN(CCC)C(=O)CSc1ncccc1C(=O)O
Reply: inactive

Task item: Please state the recorded outcome for this compound: COc1ccc2cc(C(=O)Nc3ccc(Cl)cc3)sc(=O)c2c1OC
Reply: inactive

Task item: Please state the recorded outcome for this compound: c1ccc(C(c2ccccc2)N2CCN(C(c3ccccn3)c3nnnn3C3CCCC3)CC2)cc1 (centres undefined)
Reply: inactive

The measurements presented in this section are drawn from PubChem BioAssay AID463204.
